Just for reference, patent US20230272056A1 is where these values come from.

# tested system: human LAP-TGFβ1 expressed on P3U1 cells (human, UniProt P01137 30-390)
# Sequence (P01137 30-390): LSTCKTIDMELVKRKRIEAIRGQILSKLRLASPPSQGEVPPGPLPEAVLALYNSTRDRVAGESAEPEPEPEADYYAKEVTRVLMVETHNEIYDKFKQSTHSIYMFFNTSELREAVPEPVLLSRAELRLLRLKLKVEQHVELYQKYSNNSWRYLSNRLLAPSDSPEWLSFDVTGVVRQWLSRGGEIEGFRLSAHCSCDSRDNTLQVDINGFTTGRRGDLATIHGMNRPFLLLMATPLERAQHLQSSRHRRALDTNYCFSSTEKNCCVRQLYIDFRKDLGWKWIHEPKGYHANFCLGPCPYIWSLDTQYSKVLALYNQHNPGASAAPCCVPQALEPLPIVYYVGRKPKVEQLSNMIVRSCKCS
# protocol details: cell-based or functional assay
Consider the following binders; for each one, report its ELISA assay 2 EC50.
One number for each entry, in mg/L.

Q: Provide ELISA assay 2 EC50 value for the following binder: 07BLM (antibody, human IgG1, kappa, L234A L235A, V domains shown, IgG1 L234A L235A D265S/kappa; also called 70BLH; 43BMD) VH: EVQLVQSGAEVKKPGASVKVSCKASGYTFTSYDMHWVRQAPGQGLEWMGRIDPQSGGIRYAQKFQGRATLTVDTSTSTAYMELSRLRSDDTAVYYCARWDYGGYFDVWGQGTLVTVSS VL: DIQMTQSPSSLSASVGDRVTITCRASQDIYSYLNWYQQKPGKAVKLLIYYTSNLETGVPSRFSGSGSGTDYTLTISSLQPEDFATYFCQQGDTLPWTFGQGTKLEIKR
Ans: 0.119

The following binders each have a reported value; give each one's ELISA assay 2 EC50.
1. 17BLM (antibody, human IgG1, kappa, L234A L235A, V domains shown) VH: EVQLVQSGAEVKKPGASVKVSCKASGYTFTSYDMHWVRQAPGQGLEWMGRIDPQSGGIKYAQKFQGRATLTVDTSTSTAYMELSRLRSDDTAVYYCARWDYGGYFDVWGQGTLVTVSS VL: DIQMTQSPSSLSASVGDRVTITCRASQDIYNYLNWYQQKPGKAVKLLIYYTSRLETGVPSRFSGSGSGTDYTLTISSLQPEDFATYFCQQGDELPWTFGQGTKLEIKR
2. 15BLM (antibody, human IgG1, kappa, L234A L235A, V domains shown, IgG1 L234A L235A D265S/kappa; also called 78BLH; 51BMD) VH: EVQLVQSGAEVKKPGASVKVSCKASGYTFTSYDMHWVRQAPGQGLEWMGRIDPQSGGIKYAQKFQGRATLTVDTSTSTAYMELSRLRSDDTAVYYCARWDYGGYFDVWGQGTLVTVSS VL: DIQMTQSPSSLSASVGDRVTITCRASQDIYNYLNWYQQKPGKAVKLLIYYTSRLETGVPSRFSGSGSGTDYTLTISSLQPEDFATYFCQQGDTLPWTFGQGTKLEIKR
3. 09BLM (antibody, human IgG1, kappa, L234A L235A, V domains shown) VH: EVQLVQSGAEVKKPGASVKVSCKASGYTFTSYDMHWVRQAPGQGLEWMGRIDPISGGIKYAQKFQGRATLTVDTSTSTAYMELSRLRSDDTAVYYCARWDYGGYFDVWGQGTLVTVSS VL: DIQMTQSPSSLSASVGDRVTITCRASQDIFNYLNWYQQKPGKAVKLLIYYTSHLETGVPSRFSGSGSGTDYTLTISSLQPEDFATYFCQQGDTLPWTFGQGTKLEIKR
4. 14BLM (antibody, human IgG1, kappa, L234A L235A, V domains shown) VH: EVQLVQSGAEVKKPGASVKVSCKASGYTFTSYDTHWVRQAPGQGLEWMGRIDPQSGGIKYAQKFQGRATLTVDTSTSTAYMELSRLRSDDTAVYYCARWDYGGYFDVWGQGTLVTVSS VL: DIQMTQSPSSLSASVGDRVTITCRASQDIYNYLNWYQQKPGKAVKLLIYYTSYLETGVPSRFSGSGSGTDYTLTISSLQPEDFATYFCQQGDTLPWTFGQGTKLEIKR

Ans:
0.089
0.243
0.13
0.146
